Assay Details: Binding affinity to porcine brain alphabeta-tubulin using ForteBio's Octet system
Type: tissue-based, Sus scrofa
pKd: −log10 of the molar value.
Metric: pKd

CCC(C)[C@@H]1NC(=O)[C@@H](Cc2ccccc2)n2c1nc1c(c2=O)C=CC=CO1 (stereo partly specified) [PROTUBOXEPIN A]: 4.15
